# Read-out: Cytochrome P450 2C19 (Homo sapiens) (UniProt P33261)
# Sequence (P33261 whole entry, looked up): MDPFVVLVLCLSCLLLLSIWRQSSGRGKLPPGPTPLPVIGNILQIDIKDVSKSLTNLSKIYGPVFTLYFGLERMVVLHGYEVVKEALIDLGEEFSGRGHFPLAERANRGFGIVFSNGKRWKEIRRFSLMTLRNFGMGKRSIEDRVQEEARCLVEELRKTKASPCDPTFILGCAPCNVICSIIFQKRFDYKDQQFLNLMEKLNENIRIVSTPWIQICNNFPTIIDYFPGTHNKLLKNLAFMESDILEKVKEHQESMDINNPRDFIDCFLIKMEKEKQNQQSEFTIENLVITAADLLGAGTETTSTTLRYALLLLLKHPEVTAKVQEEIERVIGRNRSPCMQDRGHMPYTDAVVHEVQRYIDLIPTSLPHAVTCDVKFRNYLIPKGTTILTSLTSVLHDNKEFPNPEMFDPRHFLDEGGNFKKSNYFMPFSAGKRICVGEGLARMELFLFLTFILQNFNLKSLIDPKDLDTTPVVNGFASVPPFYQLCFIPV
# Protocol Details: LTEA_HepaRG_CYP2C19: Life Technologies and Expression Analysis (LTEA) Assay for CYP2C19 using HepaRG (AID 2283482)
# Protocol Conditions: mRNA level, 48 h; actives raise or lower the signal
Activity calls are given as the source filed them. Rule for the calls: active = hit-call score of the fitted dose curve at least 0.9, where 1 is the maximum; inactive = score below 0.9.
Outcomes: yes (active), no (inactive)

- Molecule: "Cc1nn(-c2cc(NS(C)(=O)=O)c(Cl)cc2Cl)c(=O)n1C(F)F"
  Discrete Label: "yes"
- Molecule: "Cc1ccn2nc(S(=O)(=O)Nc3c(F)cccc3F)nc2n1"
  Discrete Label: "no"
- Molecule: "CCOP(=S)(OCC)Oc1ccc([N+](=O)[O-])cc1"
  Discrete Label: "yes"
- Molecule: "FC(F)C(F)(F)OCC(Cn1cncn1)c1ccc(Cl)cc1Cl (centres undefined)"
  Discrete Label: "yes"
- Molecule: "Cc1cc(C2CC2)nc(Nc2ccccc2)n1"
  Discrete Label: "no"
- Molecule: "CCOP(=O)(OCC)Oc1cc(C)nc(C(C)C)n1"
  Discrete Label: "no"
- Molecule: "CCc1cccc(CC)c1N(COC)C(=O)CCl"
  Discrete Label: "no"
- Molecule: "CCCSP(=O)(OCC)SCCC"
  Discrete Label: "no"
- Molecule: "CCC(=O)Nc1ccc(Cl)c(Cl)c1"
  Discrete Label: "yes"
- Molecule: "CC1=NNC(=O)N(/N=C/c2cccnc2)C1"
  Discrete Label: "no"
- Molecule: "CCOP(=S)(OCC)Oc1cc(C)nc(C(C)C)n1"
  Discrete Label: "yes"
- Molecule: "CCCCN(CC)c1c([N+](=O)[O-])cc(C(F)(F)F)cc1[N+](=O)[O-]"
  Discrete Label: "yes"
- Molecule: "CCCSP(=O)(OCC)Oc1ccc(Br)cc1Cl (centres undefined)"
  Discrete Label: "no"
- Molecule: "C[N+]1(C)CCCCC1"
  Discrete Label: "no"
- Molecule: "CCOP(=S)(OCC)OC(Cl)C(Cl)(Cl)Cl (centres undefined)"
  Discrete Label: "no"
- Molecule: "CSc1nnc(C(C)(C)C)c(=O)n1N"
  Discrete Label: "yes"
- Molecule: "CC[C@H](C)[C@H]1O[C@]2(C=C[C@@H]1C)C[C@@H]1C[C@@H](C/C=C(\\C)[C@@H](O[C@H]3C[C@H](OC)[C@@H](O[C@H]4C[C@H](OC)[C@@H](NC)[C@H](C)O4)[C@H](C)O3)[C@@H](C)/C=C/C=C3\\CO[C@@H]4[C@H](O)C(C)=C[C@@H](C(=O)O1)[C@]34O)O2"
  Discrete Label: "yes"
- Molecule: "CCNc1nc(Cl)nc(NC(C)(C)C#N)n1"
  Discrete Label: "yes"
- Molecule: "CCc1cccc(C)c1N(C(=O)CCl)C(C)COC (centres undefined)"
  Discrete Label: "yes"

----------
# Protocol Details: Tanguay_ZF_120hpf_TRUN_legacy: (Legacy) Oregon State University Tanguay Lab 120 Hour Post-fertilization zebrafish Assay for Truncated Body (AID 2283655)
Records with an inconclusive call do not appear. Active and inactive are the calls of the source. How the source made its calls: active means hit-call score of the fitted dose curve at least 0.9, where 1 is the maximum; inconclusive means response in the unintended direction; inactive means score below 0.9.
Outcomes: active, inactive

- Compound: "CSc1nnc(C(C)(C)C)c(=O)n1N"
  Discrete Label: "inactive"
- Compound: "CC1(C(=O)Nc2ccc(O)c(Cl)c2Cl)CCCCC1"
  Discrete Label: "inactive"
- Compound: "C[Si](Cn1cncn1)(c1ccc(F)cc1)c1ccc(F)cc1"
  Discrete Label: "active"
- Compound: "CC(C1CC1)C(O)(Cn1cncn1)c1ccc(Cl)cc1 (centres undefined)"
  Discrete Label: "inactive"
- Compound: "CN(C)[C@@H]1C(=O)C(C(N)=O)=C(O)[C@@]2(O)C(=O)C3=C(O)c4c(O)cccc4[C@@](C)(O)[C@H]3[C@H](O)[C@@H]12"
  Discrete Label: "inactive"
- Compound: "COP(=O)(OC)OC(Br)C(Cl)(Cl)Br (centres undefined)"
  Discrete Label: "inactive"
- Compound: "CCCCSP(=O)(SCCCC)SCCCC"
  Discrete Label: "inactive"
- Compound: "CNC(=O)Oc1cccc2c1OC(C)(C)O2"
  Discrete Label: "inactive"
- Compound: "CC(C)[C@H](C(=O)O[C@H](C#N)c1cccc(Oc2ccccc2)c1)c1ccc(Cl)cc1"
  Discrete Label: "inactive"
- Compound: "O=c1ccc(=O)[nH][nH]1"
  Discrete Label: "inactive"
- Compound: "CCOP(=O)(NC(C)C)Oc1ccc(SC)c(C)c1 (centres undefined)"
  Discrete Label: "inactive"
- Compound: "CNC(=O)ON=C(SC)C(=O)N(C)C"
  Discrete Label: "inactive"
- Compound: "CCNc1nc(Cl)nc(NC(C)(C)C#N)n1"
  Discrete Label: "inactive"
- Compound: "FC(F)C(F)(F)OCC(Cn1cncn1)c1ccc(Cl)cc1Cl (centres undefined)"
  Discrete Label: "active"
- Compound: "CC(=NC#N)N(C)Cc1ccc(Cl)nc1"
  Discrete Label: "inactive"
- Compound: "CCOP(=S)(OCC)Oc1cc(C)nc(C(C)C)n1"
  Discrete Label: "inactive"
- Compound: "Nc1c(Cl)cc([N+](=O)[O-])cc1Cl"
  Discrete Label: "active"
- Compound: "CCc1cccc(CC)c1N(COC)C(=O)CCl"
  Discrete Label: "inactive"
- Compound: "COc1cccc(C(=O)NN(C(=O)c2cc(C)cc(C)c2)C(C)(C)C)c1C"
  Discrete Label: "inactive"
- Compound: "CCOC(=O)COc1cc(-c2nn(C)c(OC(F)F)c2Cl)c(F)cc1Cl"
  Discrete Label: "inactive"
- Compound: "CCOC(=O)CC(SP(=O)(OC)OC)C(=O)OCC (centres undefined)"
  Discrete Label: "inactive"
- Compound: "CCOP(=S)(OCC)OC(Cl)C(Cl)(Cl)Cl (centres undefined)"
  Discrete Label: "inactive"
- Compound: "CCOP(=S)(OCC)Oc1ccc2c(C)c(Cl)c(=O)oc2c1"
  Discrete Label: "inactive"
- Compound: "COc1cc(OC)nc(Sc2cccc(Cl)c2C(=O)O)n1"
  Discrete Label: "inactive"

----------
# Assayed Target: rat Peripheral-type Benzodiazepine Receptor (PBR), Tspo (gene 24230)
# Protocol Details: NVS_MP_rPBR: NovaScreen (NVS) Membrane Protein Assay for rat Peripheral-type Benzodiazepine Receptor (PBR) (AID 2283335)
Records with an inconclusive call do not appear. Calls of active or inactive are those of the source. How the source made its calls: active means hit-call score of the fitted dose curve at least 0.9, where 1 is the maximum; inconclusive means response in the unintended direction; inactive means score below 0.9.
Outcomes: active, inactive

- Compound: "C=C(C)[C@H]1Cc2c(ccc3c2O[C@@H]2COc4cc(OC)c(OC)cc4[C@@H]2C3=O)O1"
  Assayed Target: "rat Peripheral-type Benzodiazepine Receptor (PBR), Tspo (gene 24230)"
  Discrete Label: "active"
- Compound: "C#CC(C)(C)NC(=O)c1cc(Cl)cc(Cl)c1"
  Assayed Target: "rat Peripheral-type Benzodiazepine Receptor (PBR), Tspo (gene 24230)"
  Discrete Label: "active"
- Compound: "CCOP(=S)(OCC)Oc1ccc2c(C)c(Cl)c(=O)oc2c1"
  Assayed Target: "rat Peripheral-type Benzodiazepine Receptor (PBR), Tspo (gene 24230)"
  Discrete Label: "active"
- Compound: "CC(COc1ccc(Oc2ccccc2)cc1)Oc1ccccn1 (centres undefined)"
  Assayed Target: "rat Peripheral-type Benzodiazepine Receptor (PBR), Tspo (gene 24230)"
  Discrete Label: "inactive"
- Compound: "CCc1cccc(CC)c1N(COC)C(=O)CCl"
  Assayed Target: "rat Peripheral-type Benzodiazepine Receptor (PBR), Tspo (gene 24230)"
  Discrete Label: "active"
- Compound: "CCC(=NOC/C=C/Cl)C1=C(O)CC(C2CCOCC2)CC1=O (centres undefined)"
  Assayed Target: "rat Peripheral-type Benzodiazepine Receptor (PBR), Tspo (gene 24230)"
  Discrete Label: "inactive"
- Compound: "CNc1cnn(-c2cccc(C(F)(F)F)c2)c(=O)c1Cl"
  Assayed Target: "rat Peripheral-type Benzodiazepine Receptor (PBR), Tspo (gene 24230)"
  Discrete Label: "active"
- Compound: "CCOP(=S)(OCC)Oc1cc(C)nc(C(C)C)n1"
  Assayed Target: "rat Peripheral-type Benzodiazepine Receptor (PBR), Tspo (gene 24230)"
  Discrete Label: "active"
- Compound: "CC1(C(=O)Nc2ccc(O)c(Cl)c2Cl)CCCCC1"
  Assayed Target: "rat Peripheral-type Benzodiazepine Receptor (PBR), Tspo (gene 24230)"
  Discrete Label: "active"

----------
# Read-out: Monocyte Chemoattractant Protein-1 (MCP1), CCL2 (gene 6347)
# Protocol Details: BSK_CASM3C_MCP1: BioMAP Diversity Plus: CASM3C Assay for Monocyte Chemoattractant Protein-1 (MCP1) Biomarker Activity (AID 2283046);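 note: MCP-1 level quantified by ELISA 24 h after dosing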
# Protocol Conditions: primary human coronary artery smooth muscle cells; actives raise or lower the signal
Calls of active or inactive are those of the source. How the source made its calls: active means hit-call score of the fitted dose curve at least 0.9, where 1 is the maximum; inactive means score below 0.9.
Measurement Label: outcome

- Compound: "Cc1nn(-c2cc(NS(C)(=O)=O)c(Cl)cc2Cl)c(=O)n1C(F)F"
  Assay Value: "inactive"
- Compound: "CN1COCN(Cc2cnc(Cl)s2)C1=N[N+](=O)[O-]"
  Assay Value: "inactive"
- Compound: "CCOC(=O)COc1cc(-c2nn(C)c(OC(F)F)c2Cl)c(F)cc1Cl"
  Assay Value: "inactive"
- Compound: "C#CC(C)(C)NC(=O)c1cc(Cl)cc(Cl)c1"
  Assay Value: "inactive"
- Compound: "CC(Oc1cccc(Cl)c1)C(=O)O (stereo unspecified)"
  Assay Value: "inactive"
- Compound: "CCOP(=S)(Oc1cnc(C(C)(C)C)nc1)OC(C)C (stereo unspecified)"
  Assay Value: "inactive"
